The reader will find IC50 measurements below, all made with HDAC2 (Homo sapiens).
Sequence (Q92769 whole entry): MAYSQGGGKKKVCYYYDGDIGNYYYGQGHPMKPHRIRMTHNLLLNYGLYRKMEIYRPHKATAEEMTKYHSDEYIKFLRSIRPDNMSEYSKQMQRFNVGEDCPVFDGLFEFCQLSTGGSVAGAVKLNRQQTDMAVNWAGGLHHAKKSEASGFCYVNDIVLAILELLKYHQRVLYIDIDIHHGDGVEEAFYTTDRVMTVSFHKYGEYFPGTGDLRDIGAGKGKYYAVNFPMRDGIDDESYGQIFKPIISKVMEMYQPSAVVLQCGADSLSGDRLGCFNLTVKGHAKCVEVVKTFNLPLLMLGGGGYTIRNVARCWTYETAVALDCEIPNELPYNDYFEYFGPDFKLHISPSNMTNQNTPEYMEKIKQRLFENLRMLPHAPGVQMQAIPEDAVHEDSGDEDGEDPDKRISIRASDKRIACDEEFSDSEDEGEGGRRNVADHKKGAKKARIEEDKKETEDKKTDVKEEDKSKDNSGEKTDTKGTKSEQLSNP

# "COCCOc1ccc(C(=O)Nc2cc(-c3cccs3)ccc2N)nc1" with HDAC2 (Homo sapiens): IC50 is 50 to 60 nM

Simply: "Nc1ccc(-c2cccs2)cc1NC(=O)c1ccc(NC2CCN(C(=O)N3CCNCC3)CC2)cn1" , HDAC2 (Homo sapiens), IC50 = 10 to 20 nM

// IC50 (HDAC2 (Homo sapiens)) for "CN1CCN(c2cnc(C(=O)Nc3cc(-c4cccs4)ccc3N)nc2)CC1" = 40 to 50 nM

// returns IC50 for "Nc1ccc(-c2cccs2)cc1NC(=O)c1ccc(OC[C@H](O)CO)cn1" with HDAC2 (Homo sapiens); value = 20 to 30 nM

// returns IC50 for "CNS(=O)(=O)Oc1ccc(-c2ccc(N)c(NC(=O)c3ccc(N4CCN(C)CC4)cn3)c2)cc1" with HDAC2 (Homo sapiens); value = 10 to 20 nM

Entry "Nc1ccc(-c2cncs2)cc1NC(=O)c1ccc(N2CCNCC2)cn1" ; assay system HDAC2 (Homo sapiens); IC50 recorded at 10 to 20 nM

The measured IC50 that "Nc1cc(F)c(-c2cccs2)cc1NC(=O)c1ccc(N2CCNCC2)cn1" showed for HDAC2 (Homo sapiens) is 10 to 20 nM

Case "Nc1ccc(-c2ccccc2)cc1NC(=O)c1ncc(NCCOCc2cccnc2)cn1" , HDAC2 (Homo sapiens), IC50 recorded as 30 to 40 nM

For "Nc1ccc(-c2ccccc2)cc1NC(=O)c1ncc(N2CCNCC2)cn1" on HDAC2 (Homo sapiens), measured IC50 was 70 to 80 nM
